assayedTarget: human DP2 receptor (Homo sapiens)
Sequence (Q9Y5Y4 whole entry): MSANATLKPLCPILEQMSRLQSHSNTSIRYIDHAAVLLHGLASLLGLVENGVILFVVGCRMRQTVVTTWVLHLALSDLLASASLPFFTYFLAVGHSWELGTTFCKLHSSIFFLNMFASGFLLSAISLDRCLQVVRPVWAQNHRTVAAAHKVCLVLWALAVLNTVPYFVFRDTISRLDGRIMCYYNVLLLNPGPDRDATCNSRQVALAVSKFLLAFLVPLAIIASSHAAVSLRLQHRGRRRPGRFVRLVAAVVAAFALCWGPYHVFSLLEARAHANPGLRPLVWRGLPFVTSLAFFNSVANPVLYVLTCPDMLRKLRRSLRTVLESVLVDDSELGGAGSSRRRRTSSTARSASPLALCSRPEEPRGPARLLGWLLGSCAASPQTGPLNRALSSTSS
assayRemarks: Prostaglandin D2 binding inhibition assay (scintillation proximity assay, 3H PGD2, membranes of transfected CHO cells)
conditionDescription: SPA, 5.5 nM 3H PGD2, CHO-K1 FLP-In human DP2 membranes; upper limit determinable 30 μM; read-out: IC50 ranges for inhibition of PGD2 binding to human DP2
pIC50: −log10 of the molar value.
metric: pIC50

compound="CS(=O)(=O)c1ccccc1S(=O)(=O)N1CCC(n2c(=O)n(CC(=O)O)c3cnccc32)CC1 [Compound 143]" metric=pIC50 valuereported="< 4.52"
compound="Cc1cc(F)ccc1S(=O)(=O)N1CCC(n2c(=O)n(CC(=O)O)c3c(C)ccnc32)CC1 [Compound 119]" metric=pIC50 valuereported="< 4.52"
compound="Cc1cc(F)ccc1S(=O)(=O)N1CCC(n2c(=O)n(CC(=O)O)c3cnccc32)CC1 [Compound 144]" metric=pIC50 valuereported="< 4.52"
compound="COc1ccccc1S(=O)(=O)N1CCC(n2c(=O)n(CC(=O)O)c3cccnc32)CC1 [Compound 97]" metric=pIC50 valuereported="5.00 to 6.00"
compound="N#Cc1ccc(S(=O)(=O)N2CCC(n3c(=O)n(CC(=O)O)c4cccnc43)CC2)cc1 [Compound 61]" metric=pIC50 valuereported="5.00 to 6.00"
compound="CC(C)Oc1ccc(S(=O)(=O)N2CCC(n3c(=O)n(CC(=O)O)c4cccnc43)CC2)cc1 [Compound 75]" metric=pIC50 valuereported="< 4.52"
compound="O=C(O)Cn1c(=O)n(C2CCN(S(=O)(=O)c3ccc(Oc4ccccc4)cc3)CC2)c2ncccc21 [Compound 77]" metric=pIC50 valuereported="5.00 to 6.00"
compound="CS(=O)(=O)c1ccccc1S(=O)(=O)N1CCC[C@@H](n2c(=O)n(CC(=O)O)c3cccnc32)C1 [Compound 113]" metric=pIC50 valuereported="> 6.00"
compound="O=C(O)Cn1c(=O)n(C2CCN(S(=O)(=O)c3ccccc3Cl)CC2)c2cccnc21 [Compound 133]" metric=pIC50 valuereported="< 4.52"
compound="O=C(O)Cn1c(=O)n(C2CCN(S(=O)(=O)c3ccc(Cl)s3)CC2)c2ncccc21 [Compound 80]" metric=pIC50 valuereported="5.00 to 6.00"
compound="N#Cc1cccc(S(=O)(=O)N2CCC(n3c(=O)n(CC(=O)O)c4cccnc43)CC2)c1 [Compound 69]" metric=pIC50 valuereported="5.00 to 6.00"
compound="Cc1cnc2c(c1)n(CC(=O)O)c(=O)n2C1CCN(S(=O)(=O)c2ccccc2S(C)(=O)=O)CC1 [Compound 123]" metric=pIC50 valuereported="< 4.52"
compound="O=C(O)Cn1c(=O)n(C2CCN(S(=O)(=O)c3cc(Cl)c(F)cc3F)CC2)c2ncccc21 [Compound 86]" metric=pIC50 valuereported="> 6.00"
compound="Cc1ccc(S(=O)(=O)N2CCC(n3c(=O)n(CC(=O)O)c4cccnc43)CC2)s1 [Compound 53]" metric=pIC50 valuereported="5.00 to 6.00"
compound="COc1cccc(S(=O)(=O)N2CCC(n3c(=O)n(CC(=O)O)c4cccnc43)CC2)c1 [Compound 78]" metric=pIC50 valuereported="5.00 to 6.00"
compound="Cc1c(F)cccc1S(=O)(=O)N1CCC(n2c(=O)n(CC(=O)O)c3cccnc32)CC1 [Compound 96]" metric=pIC50 valuereported="> 6.00"
